TESTED ON: T1, EsCas13d, nuclease-dead (Eubacterium siraeum, UniProt B0MS50, R295A;H300A;R849A;H854A)
T1 sequence: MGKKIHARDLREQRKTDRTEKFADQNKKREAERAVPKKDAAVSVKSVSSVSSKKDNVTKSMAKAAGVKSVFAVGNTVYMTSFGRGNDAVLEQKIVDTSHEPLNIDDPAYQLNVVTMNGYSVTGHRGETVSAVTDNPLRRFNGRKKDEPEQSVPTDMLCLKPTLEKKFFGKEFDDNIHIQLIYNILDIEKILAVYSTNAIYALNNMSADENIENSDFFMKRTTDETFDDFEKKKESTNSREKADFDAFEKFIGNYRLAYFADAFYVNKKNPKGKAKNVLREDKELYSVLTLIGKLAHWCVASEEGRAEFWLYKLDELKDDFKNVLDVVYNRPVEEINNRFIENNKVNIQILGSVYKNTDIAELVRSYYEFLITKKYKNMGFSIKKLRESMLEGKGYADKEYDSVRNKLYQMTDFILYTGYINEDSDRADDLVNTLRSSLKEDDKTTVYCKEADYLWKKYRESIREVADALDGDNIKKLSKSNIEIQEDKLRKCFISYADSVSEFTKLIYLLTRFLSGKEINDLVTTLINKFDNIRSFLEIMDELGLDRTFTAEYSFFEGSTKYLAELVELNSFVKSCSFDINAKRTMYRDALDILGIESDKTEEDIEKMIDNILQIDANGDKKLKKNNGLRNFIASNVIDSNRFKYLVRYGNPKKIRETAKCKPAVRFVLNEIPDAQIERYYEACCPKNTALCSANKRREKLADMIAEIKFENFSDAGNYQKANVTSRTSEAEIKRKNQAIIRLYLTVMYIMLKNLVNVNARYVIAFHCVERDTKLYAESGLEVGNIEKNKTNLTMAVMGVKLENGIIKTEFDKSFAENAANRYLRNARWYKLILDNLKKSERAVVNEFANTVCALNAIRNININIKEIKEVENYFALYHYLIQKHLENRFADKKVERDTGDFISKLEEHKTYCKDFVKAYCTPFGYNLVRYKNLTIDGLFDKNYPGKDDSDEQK
METHOD SUMMARY: crRNA (strand 1, pre-loaded); Mg2+; 40 mM Tris-HCl pH 7.5, 150 mM NaCl, 6 mM MgCl2, 1 mM DTT, 0.1% Tween-20, 0.2 mg/ml BSA; 25 C; 10 min per concentration, then washed
CONDITION SET: tags: His6-TwinStrep-SUMO cleaved; N-terminal SNAP kept (SNAP-Surface 488); label: 3' end held by stalled T7 RNA polymerase
Reported pKd values for the following binders.
# pKd is unitless: minus log10 of the molar concentration; print number only

Below are worked cases with known answers.
BINDER	pKd
target 2 MT 5'PFS UAA 3'PFS AUU (mixed) RNA 1: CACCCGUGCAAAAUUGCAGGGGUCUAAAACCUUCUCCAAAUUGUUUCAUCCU RNA 2: GGGAAUGGAUCCACAUCUACGAAUUCUAAAGGAUGAAACAAUUUGGAGAAGAUUAGAUCGGAAGAGCACACGU	8.41
target 1 MT 5'PFS GUG 3'PFS AAC (mixed) RNA 1: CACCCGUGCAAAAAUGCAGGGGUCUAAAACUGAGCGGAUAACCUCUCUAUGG RNA 2: GGGAAUGGAUCCACAUCUACGAAUUCGUGCCAUAGAGAGGUUAUCCGCUCAAACAGAUCGGAAGAGCACACGU	7.62
target 1 G12A,A14G (mixed) RNA 1: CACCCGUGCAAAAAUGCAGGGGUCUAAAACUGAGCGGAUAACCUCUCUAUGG RNA 2: GGGAAUGGAUCCACAUCUACGAAUUCGUACCAUAGAGGGAUUAUCCGCUCACCGAGAUCGGAAGAGCACACGU	7.39

Switching to the query record.
-- ask Would you mind telling me what pKd value was observed for target 2 MT 5'PFS CAU 3'PFS AUU (mixed) RNA 1: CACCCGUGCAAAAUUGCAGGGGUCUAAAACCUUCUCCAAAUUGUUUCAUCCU RNA 2: GGGAAUGGAUCCACAUCUACGAAUUCCAUAGGAUGAAACAAUUUGGAGAAGAUUAGAUCGGAAGAGCACACGU ?
-- reply 8.39
